biological target: Ribosomal protein S6 kinase alpha-5 (Homo sapiens) (UniProt O75582); test: Inhibition of MSK1 at 10 uM
Sequence (O75582 whole entry, looked up): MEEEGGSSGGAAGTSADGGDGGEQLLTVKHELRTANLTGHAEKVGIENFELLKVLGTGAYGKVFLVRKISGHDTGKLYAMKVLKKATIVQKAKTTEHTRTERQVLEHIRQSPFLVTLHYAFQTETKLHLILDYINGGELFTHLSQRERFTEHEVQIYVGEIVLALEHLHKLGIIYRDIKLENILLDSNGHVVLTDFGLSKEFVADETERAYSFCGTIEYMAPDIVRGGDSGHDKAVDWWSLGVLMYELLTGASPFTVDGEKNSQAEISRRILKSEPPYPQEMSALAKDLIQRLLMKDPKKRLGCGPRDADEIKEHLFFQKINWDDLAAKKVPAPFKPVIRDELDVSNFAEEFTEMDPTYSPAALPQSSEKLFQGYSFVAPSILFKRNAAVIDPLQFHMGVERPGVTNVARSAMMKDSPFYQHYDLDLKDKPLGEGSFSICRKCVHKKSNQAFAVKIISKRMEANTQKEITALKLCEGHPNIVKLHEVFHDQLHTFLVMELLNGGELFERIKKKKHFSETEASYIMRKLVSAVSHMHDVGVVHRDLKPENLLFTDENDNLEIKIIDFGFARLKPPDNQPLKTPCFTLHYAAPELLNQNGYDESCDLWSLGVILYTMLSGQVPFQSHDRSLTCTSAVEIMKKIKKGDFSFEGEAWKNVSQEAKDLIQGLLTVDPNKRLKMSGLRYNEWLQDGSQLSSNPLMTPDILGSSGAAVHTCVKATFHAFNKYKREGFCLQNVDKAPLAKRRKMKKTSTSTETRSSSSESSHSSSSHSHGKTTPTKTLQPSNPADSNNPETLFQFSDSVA
ENDPOINT: inhibition (%)

- RECORD SMILES: "Cc1c(Nc2ccc(Br)cc2F)c(C(=O)NOCCO)cn(C)c1=O"
  ENDPOINT: "inhibition"
  OBSERVED MEASUREMENT: 2
- RECORD SMILES: "CCONC(=O)c1cn(C)c(=O)c(C)c1Nc1ccc(Br)cc1F"
  ENDPOINT: "inhibition"
  OBSERVED MEASUREMENT: 5
- RECORD SMILES: "CCONC(=O)c1cn(C)c(=O)c(F)c1Nc1ccc(Br)cc1F"
  ENDPOINT: "inhibition"
  OBSERVED MEASUREMENT: 7
- RECORD SMILES: "CONC(=O)c1cn(C)c(=O)c(C)c1Nc1ccc(Br)cc1F"
  ENDPOINT: "inhibition"
  OBSERVED MEASUREMENT: 6
